Each entry below carries its recorded IC50.
Assay Target: KRAS G12C and cRAF (Ras-binding domain) interaction (Homo sapiens (Human), UniProt P01116, C118S/C51S/C80L/G12C)
Sequence (P01116 other isoform, or with tags, fused parts or gaps G12C/C51S/C80L/C118S): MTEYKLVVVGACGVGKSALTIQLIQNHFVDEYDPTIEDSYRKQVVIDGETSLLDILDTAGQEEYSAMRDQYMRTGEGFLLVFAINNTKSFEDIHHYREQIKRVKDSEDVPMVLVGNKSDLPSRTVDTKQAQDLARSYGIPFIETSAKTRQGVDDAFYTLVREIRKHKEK
Test Description: Inhibition of KRAS G12C and cRAF binding (AlphaScreen)
Recorded Conditions: GMPPNP-loaded KRAS G12C, 19-20 hours incubation with compound; read-out: IC50 (Inhibition of KRAS G12C and cRAF Binding)

These recorded examples may help you get a feel for the data.
>>> result("CC(C)N1CC[C@@H]1/C=C/C(=O)N1CC[C@@H](N(C)c2nc(OC[C@@]34CCCN3C[C@H](F)C4)nc3c(F)c(-c4cccc5ccc(F)c(Cl)c45)ncc23)C1")
"10 to 100 nM"
>>> result("CCN1CC[C@@H]1/C=C/C(=O)N1CC[C@@H](N(C)c2nc(OC[C@@]34CCCN3C[C@H](F)C4)nc3c(F)c(-c4cccc5cccc(Cl)c45)ncc23)C1")
"10 to 100 nM"
>>> result("Cc1nccc(/C=C/C(=O)N2CC[C@@H](N(C)c3nc(OC[C@@]45CCCN4C[C@H](F)C5)nc4c(F)c(-c5cccc6ccc(F)c(Cl)c56)ncc34)C2)n1")
"10 to 100 nM"
>>> result("C#Cc1c(F)ccc2cccc(-c3ncc4c(N(C)[C@@H]5CCN(C(=O)/C=C/c6cc(C)nc(C)n6)C5)nc(OC[C@@]56CCCN5C[C@H](F)C6)nc4c3F)c12")
"10 to 100 nM"
>>> result("CN1CC(C)(C#CC(=O)N2CC[C@@H](N(C)c3nc(OC[C@@]45CCCN4C[C@H](F)C5)nc4c(F)c(-c5cccc6cccc(Cl)c56)ncc34)C2)C1")
"< 10 nM"

Read the next record carefully.
# IC50 of CN(CC1CN(C(=O)/C=C/CN2CCOCC2)C1)c1nc(OC[C@@]23CCCN2C[C@H](F)C3)nc2c(F)c(-c3cccc4cccc(Cl)c34)ncc12 = 10 to 100 nM
